# TARGET: Poly [ADP-ribose] polymerase 1 (Homo sapiens, UniProt P09874)
# Sequence (P09874 whole entry): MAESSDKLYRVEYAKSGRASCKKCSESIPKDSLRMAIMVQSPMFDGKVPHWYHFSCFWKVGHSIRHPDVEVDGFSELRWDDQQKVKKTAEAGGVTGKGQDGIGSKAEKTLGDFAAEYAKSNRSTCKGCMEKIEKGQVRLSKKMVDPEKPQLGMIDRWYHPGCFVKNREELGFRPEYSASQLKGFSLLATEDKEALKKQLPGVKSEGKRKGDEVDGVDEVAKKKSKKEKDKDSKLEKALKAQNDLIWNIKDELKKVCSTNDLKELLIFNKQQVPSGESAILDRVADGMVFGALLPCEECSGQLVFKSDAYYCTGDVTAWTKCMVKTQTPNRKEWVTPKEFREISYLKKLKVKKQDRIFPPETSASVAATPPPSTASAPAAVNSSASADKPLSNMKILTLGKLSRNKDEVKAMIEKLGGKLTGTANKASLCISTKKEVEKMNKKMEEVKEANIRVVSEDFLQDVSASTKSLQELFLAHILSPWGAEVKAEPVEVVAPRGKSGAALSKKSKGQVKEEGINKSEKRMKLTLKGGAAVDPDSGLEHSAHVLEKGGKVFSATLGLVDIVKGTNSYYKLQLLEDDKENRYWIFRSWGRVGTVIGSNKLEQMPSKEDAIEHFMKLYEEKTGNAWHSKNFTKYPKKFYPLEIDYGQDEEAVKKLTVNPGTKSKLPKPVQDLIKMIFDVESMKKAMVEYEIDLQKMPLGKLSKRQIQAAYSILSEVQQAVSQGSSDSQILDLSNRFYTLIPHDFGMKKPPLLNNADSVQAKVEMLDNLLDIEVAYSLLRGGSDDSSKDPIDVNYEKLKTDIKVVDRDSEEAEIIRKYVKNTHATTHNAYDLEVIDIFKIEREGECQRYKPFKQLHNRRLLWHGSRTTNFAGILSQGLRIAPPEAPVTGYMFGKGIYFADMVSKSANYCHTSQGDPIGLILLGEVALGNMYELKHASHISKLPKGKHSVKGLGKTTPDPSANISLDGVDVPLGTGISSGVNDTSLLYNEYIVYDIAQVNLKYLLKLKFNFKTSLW
# RUN DESCRIPTION: Inhibition of recombinant human full-length PARP-1 using biotinylated substrate
pIC50: −log10 of the molar value.
ASSAY ENDPOINT: pIC50

given_smiles=O=C(c1cccnc1)N1CCN(Cc2c(O)cc(O)c3c(=O)cc(-c4ccc(O)cc4)oc23)CC1 result_number=7.58
given_smiles=O=c1cc(-c2ccc(O)cc2)oc2c(CN3CCN(Cc4ccoc4)CC3)c(O)cc(O)c12 result_number=7.36
given_smiles=COc1ccc(CN2CCN(Cc3c(O)cc(O)c4c(=O)cc(-c5ccc(O)cc5)oc34)CC2)c(OC)c1OC result_number=7.67
given_smiles=O=C(c1cccs1)N1CCN(Cc2c(O)cc(O)c3c(=O)cc(-c4ccc(O)cc4)oc23)CC1 result_number=7.80

----------
Known IC50 of a selection of compounds
# TARGET: Poly [ADP-ribose] polymerase 2 (Homo sapiens, UniProt Q9UGN5)
# Sequence (Q9UGN5 whole entry): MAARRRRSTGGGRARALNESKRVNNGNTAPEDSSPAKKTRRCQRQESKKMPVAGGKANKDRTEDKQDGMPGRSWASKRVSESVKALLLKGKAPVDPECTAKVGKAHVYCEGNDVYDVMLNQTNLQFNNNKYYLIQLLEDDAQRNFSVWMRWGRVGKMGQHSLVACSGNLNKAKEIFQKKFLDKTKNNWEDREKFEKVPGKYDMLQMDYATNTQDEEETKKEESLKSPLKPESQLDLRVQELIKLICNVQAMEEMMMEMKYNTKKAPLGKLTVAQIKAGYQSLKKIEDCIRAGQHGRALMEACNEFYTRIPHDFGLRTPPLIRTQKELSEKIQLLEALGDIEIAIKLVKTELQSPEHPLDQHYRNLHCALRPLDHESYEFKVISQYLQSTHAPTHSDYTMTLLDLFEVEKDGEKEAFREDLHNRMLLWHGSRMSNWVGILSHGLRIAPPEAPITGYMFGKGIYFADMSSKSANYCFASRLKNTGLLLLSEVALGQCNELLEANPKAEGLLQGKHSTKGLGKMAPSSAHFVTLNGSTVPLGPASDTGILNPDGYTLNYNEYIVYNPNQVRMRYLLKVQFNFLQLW
# RUN DESCRIPTION: Inhibition of recombinant human full-length PARP-2 using biotinylated substrate
ASSAY ENDPOINT: IC50 (nM)

given_smiles=O=C(c1cccc(C(F)(F)F)c1)N1CCN(Cc2c(O)cc(O)c3c(=O)cc(-c4ccc(O)cc4)oc23)CC1 assay_endpoint=IC50 result_number=2900
given_smiles=O=c1cc(-c2ccc(O)cc2)oc2c(CN3CCN(c4ccc(Cl)cc4)CC3)c(O)cc(O)c12 assay_endpoint=IC50 result_number=3700
given_smiles=O=c1cc(-c2ccc(O)cc2)oc2c(CN3CCN(c4ccc(O)cc4)CC3)c(O)cc(O)c12 assay_endpoint=IC50 result_number=2900
given_smiles=CC(C)C(=O)N1CCN(Cc2c(O)cc(O)c3c(=O)cc(-c4ccc(O)cc4)oc23)CC1 assay_endpoint=IC50 result_number=2100

----------
# Species: Homo sapiens
# RUN DESCRIPTION: Selectivity index, ratio of IC50 for inhibition of recombinant human full-length PARP-2 to IC50 for inhibition of recombinant human full-length PARP-1
ASSAY ENDPOINT: Ratio IC50

given_smiles=COC(=O)C1CCN(Cc2c(O)cc(O)c3c(=O)cc(-c4ccc(O)cc4)oc23)CC1 result_number=68.6
given_smiles=O=c1cc(-c2ccc(O)cc2)oc2c(CN3CCN(CC4CC4)CC3)c(O)cc(O)c12 result_number=53.1
given_smiles=O=C(C1CCCCC1)N1CCN(Cc2c(O)cc(O)c3c(=O)cc(-c4ccc(O)cc4)oc23)CC1 result_number=51.7

----------
Known IC50 of a selection of molecules
# TARGET: Poly [ADP-ribose] polymerase 2 (Homo sapiens, UniProt Q9UGN5)
# RUN DESCRIPTION: Inhibition of PARP-2 (unknown origin)
ASSAY ENDPOINT: IC50 (µM)

given_smiles=O=c1cc(-c2ccc(O)c(-c3c(O)cc(O)c4c(=O)cc(-c5ccc(O)cc5)oc34)c2)oc2cc(O)cc(O)c12 target="Poly [ADP-ribose] polymerase 2 (Homo sapiens, UniProt Q9UGN5)" sign== result_number=10.3
given_smiles=Cn1cccc1/C=C1\C(=O)NC(=O)c2ccccc21 target="Poly [ADP-ribose] polymerase 2 (Homo sapiens, UniProt Q9UGN5)" sign== result_number=40
given_smiles=COc1cc(/C=N/NC(N)=S)c(Br)c(Br)c1OC target="Poly [ADP-ribose] polymerase 2 (Homo sapiens, UniProt Q9UGN5)" sign=> result_number=1

----------
# RUN DESCRIPTION: Cmax in Sprague-Dawley rat at 50 mg/kg, po
# Type: ADME, organism-based
# Set-up: route oral, dose 50 mg/kg
# ASSAY SETUP: in vivo
ASSAY ENDPOINT: Cmax (ng/mL)

given_smiles=Cl.Cl.O=c1cc(-c2ccc(O)cc2)oc2c(CN3CCN(Cc4cccs4)CC3)c(O)cc(O)c12 result_number=470

----------
# TARGET: Poly [ADP-ribose] polymerase 2 (Homo sapiens)
# RUN DESCRIPTION: Inhibition of recombinant human full-length PARP-2 using biotinylated substrate
pIC50: −log10 of the molar value.
Known pIC50 of a selection of molecules
ASSAY ENDPOINT: pIC50

given_smiles=O=C(c1ccc(Cl)cc1)N1CCN(Cc2c(O)cc(O)c3c(=O)cc(-c4ccc(O)cc4)oc23)CC1 result_number=5.52
given_smiles=O=C(c1ccccn1)N1CCN(Cc2c(O)cc(O)c3c(=O)cc(-c4ccc(O)cc4)oc23)CC1 result_number=5.89
given_smiles=O=c1cc(-c2ccc(O)cc2)oc2c(CN3CCN(Cc4ccc(Cl)cc4)CC3)c(O)cc(O)c12 result_number=5.74
given_smiles=O=C(c1ccco1)N1CCN(Cc2c(O)cc(O)c3c(=O)cc(-c4ccc(O)cc4)oc23)CC1 result_number=6.10
given_smiles=O=c1cc(-c2ccc(O)cc2)oc2c(CN3CCN(Cc4cccs4)CC3)c(O)cc(O)c12 result_number=6.05

----------
# TARGET: UniProt Q9UGN5
# RUN DESCRIPTION: Inhibition of recombinant human full-length PARP-2 using biotinylated substrate
ASSAY ENDPOINT: IC50 (µM)

given_smiles=O=C(C1CCCCC1)N1CCN(Cc2c(O)cc(O)c3c(=O)cc(-c4ccc(O)cc4)oc23)CC1 result_number=2.3
given_smiles=COc1ccc(CN2CCN(Cc3c(O)cc(O)c4c(=O)cc(-c5ccc(O)cc5)oc34)CC2)cc1 result_number=2
given_smiles=O=c1cc(-c2ccc(O)cc2)oc2c(CN3CCN(c4ccccc4O)CC3)c(O)cc(O)c12 result_number=2
given_smiles=O=c1cc(-c2ccc(O)c(-c3c(O)cc(O)c4c(=O)cc(-c5ccc(O)cc5)oc34)c2)oc2cc(O)cc(O)c12 result_number=10.3

The origin of these recorded values is ChEMBL document CHEMBL4842357.
